The measurements presented in this section are drawn from ChEMBL document CHEMBL2046376.

Would you kindly list MIC for each of these compounds?
Test system: Staphylococcus aureus
assayName: Antibacterial activity against hospital-acquired methicillin-sensitive Staphylococcus aureus 441/11 after 18 hrs by twofold serial agar dilution technique
Assay type: functional
assayContext: 441/11, 18 h
Answers are plain numbers, in µg/mL.

Take a look at these entries with their results.
[[record]]
compound = "CC[C@@H](C(=O)[C@@H](C)[C@@H](O)[C@H](C)[C@@H]1O[C@@H]([C@@H](CC)C(=O)Nc2ccccc2)CC[C@@H]1C)[C@H]1O[C@]2(C=C[C@@H](O)[C@]3(CC[C@@](C)([C@H]4CC[C@](O)(CC)[C@H](C)O4)O3)O2)[C@H](C)C[C@@H]1C"
endpoint = "MIC"
number = 2

[[record]]
compound = "CC[C@@H](C(=O)[C@@H](C)[C@@H](O)[C@H](C)[C@@H]1O[C@@H]([C@@H](CC)C(=O)NCCCN2CCCCC2)CC[C@@H]1C)[C@H]1O[C@]2(C=C[C@@H](O)[C@]3(CC[C@@](C)([C@H]4CC[C@](O)(CC)[C@H](C)O4)O3)O2)[C@H](C)C[C@@H]1C"
endpoint = "MIC"
number = 64

[[record]]
compound = "CC[C@@]1([C@@H]2O[C@@H]([C@H]3O[C@@](O)(CO)[C@H](C)C[C@@H]3C)C[C@@H]2C)CC[C@H]([C@]2(C)CC[C@]3(C[C@H](O)[C@@H](C)[C@@H]([C@@H](C)[C@@H](OC)[C@H](C)C(=O)O)O3)O2)O1 [MONENSIN]"
endpoint = "MIC"
number = 4


Please turn your attention to the following entry.
Inquiry: Give the measured MIC of CC[C@@H](C(=O)[C@@H](C)[C@@H](O)[C@H](C)[C@@H]1O[C@@H]([C@@H](CC)C(=O)O)CC[C@@H]1C)[C@H]1O[C@]2(C=C[C@@H](O)[C@]3(CC[C@@](C)([C@H]4CC[C@](O)(CC)[C@H](C)O4)O3)O2)[C@H](C)C[C@@H]1C [SALINOMYCIN] .
Reply text: 2
